Cited source for all entries: patent US9283279B2

Assay: Pharmacokinetic studies in mice
Type: in vivo, female Balb/C mice
Details: female, mouse, plasma, iv; i.v. 10 mg/Kg PTX equiv., Balb/C mice; read-out: T1/2β (elimination half-life)
measureName: half-life (min)
Note: unit min is implicit; provide only the numeric part.

Consider the molecule `CC(=O)O[C@H]1C(=O)[C@@]2(C)[C@H]([C@H](OC(=O)c3ccccc3)[C@]3(O)C[C@H](OC(=O)[C@H](O)[C@@H](NC(=O)c4ccccc4)c4ccccc4)C(C)=C1C3(C)C)[C@]1(OC(C)=O)CO[C@@H]1C[C@@H]2O` and give its measured half-life. 15.1

====

Assay: Pharmacokinetic studies in mice
Type: in vivo, female Balb/C mice
Details: female, mouse, plasma, iv; i.v. 10 mg/Kg PTX equiv., Balb/C mice
measureName: clearance (mL/min)
Value expressed in mL/min; do not type the unit.

Would you kindly share the measured clearance for `CC(=O)O[C@H]1C(=O)[C@@]2(C)[C@H]([C@H](OC(=O)c3ccccc3)[C@]3(O)C[C@H](OC(=O)[C@H](O)[C@@H](NC(=O)c4ccccc4)c4ccccc4)C(C)=C1C3(C)C)[C@]1(OC(C)=O)CO[C@@H]1C[C@@H]2O` ? 7.4
